studyTarget: full-length beta-Catenin (Uniprot ID P35222) (Homo sapiens (Human)) (UniProt P35222)
Sequence (P35222 whole entry): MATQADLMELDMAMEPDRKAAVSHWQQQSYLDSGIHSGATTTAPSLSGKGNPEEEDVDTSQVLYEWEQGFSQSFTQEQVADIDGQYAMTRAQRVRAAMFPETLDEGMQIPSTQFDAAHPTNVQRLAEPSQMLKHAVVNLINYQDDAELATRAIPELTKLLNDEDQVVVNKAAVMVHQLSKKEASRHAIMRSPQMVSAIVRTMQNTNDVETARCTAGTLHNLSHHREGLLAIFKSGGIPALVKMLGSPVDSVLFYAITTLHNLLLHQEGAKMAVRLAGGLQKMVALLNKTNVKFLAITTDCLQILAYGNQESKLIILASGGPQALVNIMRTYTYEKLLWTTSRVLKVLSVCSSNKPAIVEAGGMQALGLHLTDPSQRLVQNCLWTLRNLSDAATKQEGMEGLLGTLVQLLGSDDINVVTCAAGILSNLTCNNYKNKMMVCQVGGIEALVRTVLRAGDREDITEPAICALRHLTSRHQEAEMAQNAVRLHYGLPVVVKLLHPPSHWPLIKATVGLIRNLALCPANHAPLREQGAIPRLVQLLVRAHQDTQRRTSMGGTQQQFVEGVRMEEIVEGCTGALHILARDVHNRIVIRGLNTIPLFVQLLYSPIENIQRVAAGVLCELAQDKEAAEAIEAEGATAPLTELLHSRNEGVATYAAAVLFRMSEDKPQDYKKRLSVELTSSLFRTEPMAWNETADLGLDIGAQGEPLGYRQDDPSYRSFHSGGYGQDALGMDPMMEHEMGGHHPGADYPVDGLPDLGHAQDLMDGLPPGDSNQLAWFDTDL
assayName: fluorescence polarization competition; competitor 5FAM-TCF4(10-53) probe on full-length beta-catenin
Starred links: 1 amine or outer side, 2 acyl side, 3 side chain; linkers in the order of their positions; H or OH if unused. Positions of bridges follow the written chain, without caps; N, C: chain ends. Non-standard residues stand in square brackets, D forms with d. Primed or numbered codes have the meaning given here. No end group written: not given here. PyrS2″ = (S)-3-amino-1-((pent-4-en-1-yloxy)carbonyl)pyrrolidine-3-carboxylic acid (stapling residue), C=CCCCOC(=O)N1CC[C@@](N[*:1])(C(=O)[*:2])C1; B5(5) = 2,2-bis(4-pentenyl)glycine, 2-amino-2-(pent-4-en-1-yl)hept-6-enoic acid (stitching residue), C=CCCCC(CCCC=C)(N[*:1])C(=O)[*:2]; PyrS2 = (S)-3-amino-1-((pent-4-en-1-yloxy)carbonyl)pyrrolidine-3-carboxylic acid, C=CCCCOC(=O)N1CC[C@@](N[*:1])(C(=O)[*:2])C1; B5 = 2-amino-2-(pent-4-en-1-yl)hept-6-enoic acid, C=CCCCC(CCCC=C)(N[*:1])C(=O)[*:2]; Phe(3-COOH) = N[C@@H](Cc1cccc(C(=O)O)c1)C(=O)O; 2F3MeF = Cc1cccc(C[C@H](N[*:1])C(=O)[*:2])c1F; Bta = N[C@@H](Cc1csc2ccccc12)C(=O)O; αAllylPro = C=CC[C@@]1(C(=O)O)CCCN1; tBuAla = CC(C)(C)C[C@H](N)C(=O)O; Cha = N[C@@H](CC1CCCCC1)C(=O)O
endpoint: IC50
Record the result as a number with its unit.

[αAllylPro]D[tBuAla][B5]DDAAFF[PyrS2][Cha][Bta]Q-NH2 (staple 1-4, 4-11) [I-1331]
75 nM

Then this binder:
GET /values?readout=IC50&item= Ac-[αAllylPro]D[tBuAla][B5(5)]D[Phe(3-COOH)]A[dA]FL[PyrS2″][2F3MeF][Bta]A-NH2 (staple 1-4, 4-11; also: later eluting HPLC isomer) [I-2099]
325 nM
